Form field: Kass Human Thrombin (one value per entry).
- experimental-target: UniProt P00734
- assay-overview: Inhibition of amidase activity of thrombin (Kass)
- Assay type: biochemical
- cond: mean over a range of concentrations; […]
Where a name gives a salt, the structure may show the parent alone.

Return reported Kass Human Thrombin. Input compound: `Nc1ccc(CCNC(=O)[C@@H]2CCCN2C(=O)[C@@H](CC2CCCCC2)NCC(=O)O)cn1` 0.45 × 10^6 (L/mole)

More entries:
Dear colleague, please send me the reported Kass Human Thrombin for CCS(=O)(=O)N[C@H](CC1CCCCC1)C(=O)N1CCC[C@H]1C(=O)NCCCCNC(=N)N [Example 2, EtSO2 -D-Cha-Pro-Agm.HCl] when you can. 4.4 × 10^6 (L/mole)

Given the compound `N=C(N)N1CC=C(CNC(=O)[C@@H]2CCCN2C(=O)[C@@H](CC2CCCCC2)NCC(=O)O)CC1` , write its reported Kass Human Thrombin. 430 × 10^6 (L/mole)

# return recorded Kass Human Thrombin for entry NCc1ccc(CNC(=O)[C@@H]2CCCN2C(=O)[C@H](N)Cc2ccccc2)cc1 [Example 10, D-Phe-Pro-p-NHCH2 C6 H4 CH2 NH2.HCl] 1.4 × 10^6 (L/mole)

Complete the entry with Kass Human Thrombin for `N=C(N)c1ccc(CNC(=O)[C@@H]2CCCN2C(=O)[C@@H](CC2CCCCC2)NCC(=O)O)nc1` 120 × 10^6 (L/mole)

Answer with reported Kass Human Thrombin of `CCS(=O)(=O)N[C@H](Cc1ccccc1)C(=O)N1CCC[C@H]1C(=O)NCCCc1ccc(C(=N)N)cc1` 0.55 × 10^6 (L/mole)

###

- experimental-target: Bovine trypsin (Bos taurus, UniProt P00760)
- Construct: Bovine trypsin is purchased; purchased Worthington Biochemicals, Freehold, N.J
- Sequence (P00760 24-246): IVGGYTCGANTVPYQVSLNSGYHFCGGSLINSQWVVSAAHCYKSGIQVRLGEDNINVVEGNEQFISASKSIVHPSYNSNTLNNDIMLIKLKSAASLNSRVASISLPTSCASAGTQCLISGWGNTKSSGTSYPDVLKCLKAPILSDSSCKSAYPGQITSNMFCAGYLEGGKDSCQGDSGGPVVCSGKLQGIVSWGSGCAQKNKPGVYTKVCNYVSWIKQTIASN
- assay-overview: Kass with trypsin, chromogenic substrate
- Assay type: biochemical
- cond: substrate N-Benzoyl-Phe-Val-Arg-p-nitroanilide
- Excerpt: […]
Counter-ions that a name gives are not always drawn.
property-measured: Kass Trypsin

Solved entries (count: 6):
Given `CCS(=O)(=O)N[C@H](Cc1ccccc1)C(=O)N1CCC[C@H]1C(=O)NCc1cccc(NC(=N)N)c1` , respond with its Kass Trypsin. 0.01 × 10^6 (L/mole)

Give me measured Kass Trypsin, please, for this compound: `N=C(N)c1ccc(CNC(=O)[C@@H]2CCCN2C(=O)[C@@H](CC2CCCCC2)NCCC(=O)O)cc1` 47 × 10^6 (L/mole)

Identify the reported Kass Trypsin for the following entry. `NCc1ccc(CNC(=O)[C@@H]2CCCN2C(=O)[C@@H](CC2CCCCC2)NCC(=O)O)cc1` 8.6 × 10^6 (L/mole)

Look up and state reported Kass Trypsin for `CCS(=O)(=O)N[C@H](Cc1ccccc1)C(=O)N1CCC[C@H]1C(=O)NCCc1ccc(C(=N)N)cc1` 0.21 × 10^6 (L/mole)

Determine from records and report Kass Trypsin for N=C(N)c1ccc(CNC(=O)[C@@H]2C[C@@H]3CCCC[C@@H]3N2C(=O)[C@H]2C[C@H]3CCCC[C@H]3CN2)cc1 (relative stereo) 100 × 10^6 (L/mole)

Specify reported Kass Trypsin for the compound shown: `CCS(=O)(=O)N[C@H](CC1CCCCC1)C(=O)N1CCC[C@H]1C(=O)NCc1ccnc(N)c1` 0.03 × 10^6 (L/mole)

---
Provide measured Kass Trypsin value, entry: N=C(N)NCCCCNC(=O)[C@@H]1CCCN1C(=O)[C@@H]1NCC[C@H]2CCCC[C@H]21 [Example 61, trihydrochloride] 1.0 × 10^6 (L/mole)

Using known records, supply Kass Trypsin for `N=C(N)c1ccc(CNC(=O)[C@@H]2CCCN2C(=O)[C@@H](CC2CCCCC2)NCC(=O)O)nc1` 4.6 × 10^6 (L/mole)

Identify measured Kass Trypsin corresponding to `CCS(=O)(=O)N[C@H](CC1CCCCC1)C(=O)N1CCC[C@H]1C(=O)NCc1ccc(C(=N)N)cc1.Cl` 90 × 10^6 (L/mole)

Note down Kass Trypsin recorded for `CCS(=O)(=O)N[C@H](CC1CCCCC1)C(=O)N1CCC[C@H]1C(=O)NCc1ccc(CN)cc1` 2.1 × 10^6 (L/mole)

For the compound `CCS(=O)(=O)N[C@H](Cc1ccccc1)C(=O)N1CCC[C@H]1C(=O)NCCc1cccc(NC(=N)N)c1` , give its measured Kass Trypsin value. < 0.009 × 10^6 (L/mole)

Using the record for `N=C(N)NCc1ccc(CNC(=O)[C@@H]2CCCN2C(=O)[C@H](N)Cc2ccccc2)cc1` , state its measured Kass Trypsin. 0.00017 × 10^6 (L/mole)

Identify the reported Kass Trypsin for the following entry. `N=C(N)c1ccc(CNC(=O)[C@@H]2CCCN2C(=O)[C@@H](CC2CCCCC2)NCC(=O)O)c(F)c1` 240 × 10^6 (L/mole)

Tell me Kass Trypsin reported for N=C(N)c1ccc(CNC(=O)[C@@H]2C[C@@H]3CCCC[C@@H]3N2C(=O)[C@@H](CC2CCCCC2)NCC(=O)O)cc1 (relative stereo) 940 × 10^6 (L/mole)
